Molecular target: (His)6-SOX11-DBD protein (Homo sapiens)
Construct: Recombinant (His)6-SOX11-DBD protein was immobilized
Assay: Surface Plasmon Resonance (SPR) assay
Details: immobilized recombinant (His)6-SOX11-DBD, 25° C., compounds 5-40 μM, mean of three experiments
Measured Endpoint: Kd (µM)

Consider the reported Kd for these compounds:
CC1Sc2ccc(C(=O)Nc3ccc(S(=O)(=O)N4CCNCC4)cc3)cc2NC1=O (centres unmarked) :: 17.5
O=C(Nc1ccc(S(=O)(=O)Nc2ccccc2)cc1)c1ccc2ccncc2c1 :: 37.9

(1) CC1Sc2ccc(C(=O)Nc3cccc(OCc4ccccc4)c3)cc2NC1=O (centres unmarked)
(2) CCN(CC)S(=O)(=O)c1ccc(NC(=O)c2ccc3c(c2)NC(=O)C(C)S3)cc1 (centres unmarked)
Query :: Form field 'greater Kd' accepts 1 or 2 ; which applies? Choose, then provide that item's label.
Result :: 2

(A) O=C(Nc1ccc(S(=O)(=O)N2CCCCC2)c(Cl)c1)c1ccc2c(c1)CCCS2
(B) Cc1ccccc1COc1ccc(CNc2ccc3cncnc3c2)cc1
Query :: Form field 'greater Kd' accepts A or B ; which applies? Choose, then provide that item's label.
Result :: A
(A: 17.6 µM, B: 11.1 µM)

(P) COc1cccc(NC(=O)Nc2cc(Nc3cccc(S(=O)(=O)N4CCCC4)c3)ncn2)c1
(Q) CN(c1ccccc1Cl)S(=O)(=O)c1ccc(NC(=O)c2ccc3c(c2)CCCS3)cc1
(R) c1ccc(COc2ccc(CNc3ccc4cnccc4c3)cc2)cc1
Query :: Would you mind ranking these compounds by ascending Kd? Reply with the labels, ordered as the question asks.
Result :: Q, P, R
(Q: 2.39 µM, P: 16.5 µM, R: 33.7 µM)

(P) CC1Sc2ccc(C(=O)Nc3ccc(CN4CCCCC4)cc3)cc2NC1=O (centres unmarked)
(Q) Cc1nc2cc(C(=O)Nc3ccc(S(=O)(=O)Nc4ccccc4)cc3)ccc2s1
(R) CC(=O)NCc1cccc(Nc2nc(Nc3cccc(S(=O)(=O)N4CCCC4)c3)ncc2C)c1
(S) CC1Sc2ccc(C(=O)Nc3ccc(S(=O)(=O)Nc4ccccc4C(F)(F)F)cc3)cc2NC1=O (centres unmarked)
Query :: Ordering criterion: Kd; begin with the maximum. Reply with the labels, ordered as the question asks.
Result :: R, Q, P, S

* * *

Tested on: Jeko-1 (SOX11+)
Assay: Cell viability assay (CellTiter-Blue resazurin reduction)
Format: cell-based
Conditions: JeKo-1 cells, 20 μM compound, 72 hours, normalized to 0.2% DMSO; 20 µM
Measured Endpoint: Jeko-1 Viability at 20 μM (%)
All answers are understood in %, so give the number only.

Consider the reported Jeko-1 Viability at 20 μM (%) for these molecules:
CC1Sc2ccc(C(=O)Nc3ccc(S(=O)(=O)Nc4ccccc4)cc3)cc2NC1=O (stereo not shown) [drawing 468] :: 0.83
CC1Sc2ccc(C(=O)Nc3ccc(S(=O)(=O)Nc4ccccc4)cc3)cc2NC1=O (stereo not shown) [drawing 599] :: 6.36
O=C1CSc2ccc(C(=O)Nc3ccc(S(=O)(=O)Nc4ccccc4)cc3)cc2N1 [drawing 513] :: 79.21

# input for lookup
Query :: Jeko-1 Viability at 20 μM (%) lookup needed for O=C1CSc2ccc(C(=O)Nc3ccc(S(=O)(=O)Nc4ccccc4)cc3)cc2N1 [drawing 503] , thanks.
Result :: 2.73

* * *

Molecular target: (His)6-SOX11-DBD protein (Homo sapiens, UniProt P35716)
Construct: Recombinant (His)6-SOX11-DBD protein was immobilized
Sequence (P35716 49-117 limits assumed): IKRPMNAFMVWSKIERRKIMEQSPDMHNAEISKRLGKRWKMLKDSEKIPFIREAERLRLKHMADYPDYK
Test: Surface Plasmon Resonance (SPR) assay
Conditions: immobilized recombinant (His)6-SOX11-DBD, 25° C., compounds 5-40 μM, mean of three experiments
Measured Endpoint: Kd (µM)

(a) CC1Sc2ccc(C(=O)Nc3cccc(S(=O)(=O)N(C)C(C)C)c3)cc2NC1=O (stereo not drawn)
(b) CN(c1ccccc1)S(=O)(=O)c1ccc(NC(=O)c2ccc(SCC(=O)O)cc2)cc1
(c) O=C(Nc1ccc(S(=O)(=O)N2CCCC2)c(Cl)c1)c1ccc2c(c1)CCCS2
(d) CC(=O)NCc1cccc(Nc2ccnc(Nc3cccc(S(=O)(=O)N4CCCC4)c3)n2)c1
(e) CC1Sc2ccc(C(=O)Nc3ccc(S(=O)(=O)Nc4cc[nH]c(=O)c4)cc3)cc2NC1=O (stereo not drawn)
Query :: hey, can you rank those compounds up there by Kd? biggest number first please Reply with the labels, ordered as the question asks.
Result :: a, d, e, b, c

(I) CC1Sc2ccc(C(=O)Nc3ccc(CN(C)C(C)C)cc3)cc2NC1=O (stereo not drawn)
(II) CN(c1ccccc1)S(=O)(=O)c1ccc(NC(=O)c2ccc(/C=C/C(=O)O)cc2)cc1
(III) Cc1ccc(N(C)S(=O)(=O)c2ccc(NC(=O)c3ccc4c(c3)CCCS4)cc2)cc1
Query :: Would you mind ranking these compounds by ascending Kd? Reply with the labels, ordered as the question asks.
Result :: I, III, II
(I: 1.17 µM, III: 2.73 µM, II: 106 µM)

* * *

System: Jeko-1 (SOX11+)
Assay: Cell viability assay (CellTiter-Blue resazurin reduction)
Format: cell-based
Conditions: Homo sapiens, JeKo-1, 72 h, JeKo-1 cells, 20 μM compound, normalized to 0.2% DMSO
Measured Endpoint: viability at 20 µM (%)
All answers are understood in %, so give the number only.

Consider the reported viability at 20 µM for these compounds:
CC1Sc2ccc(C(=O)ONc3ccc(S(=O)(=O)Nc4ccccc4)nc3)cc2NC1=O (stereo not drawn) :: 90
Cc1cccc(NS(=O)(=O)c2ccc(NC(=O)c3ccc4c(c3)NC(=O)C(C)S4)cc2)c1 (stereo not drawn) :: 0.58
CN1C(=O)CSc2ccc(C(=O)Nc3ccc(CN4CCCCCC4)cc3)cc21 :: 102
CC(C)NS(=O)(=O)c1ccc(NC(=O)c2ccc3c(c2)NC(=O)C(C)S3)cc1 (stereo not drawn) :: 20.3
O=C(Nc1ccc(S(=O)(=O)Nc2ccccc2)cc1)c1ccc2[nH]ncc2c1 :: 47.6

Query :: // map "O=C(Nc1ccc(S(=O)(=O)Nc2ccccc2)cc1)c1ccc2ccncc2c1" to recorded viability at 20 µM (system: Jeko-1 (SOX11+))
Result :: 24.8

Query :: What do you get for "O=C(Nc1ccc(S(=O)(=O)Nc2ccccc2)cc1)c1ccc2nc[nH]c2c1" ?
Result :: 93.6

Query :: What do you get for CC1Sc2ccc(C(=O)Nc3cccc(S(=O)(=O)Nc4ccc(NC(=O)OC(C)(C)C)cc4)c3)cc2NC1=O (stereo not drawn) ?
Result :: 67.4

Query :: What do you get for CC1Sc2ccc(C(=O)Nc3ncc(S(=O)(=O)Nc4ccccc4)s3)cc2NC1=O (stereo not drawn) ?
Result :: 88

Query :: What do you get for "O=C(Nc1ccc(S(=O)(=O)Nc2ccccc2)cc1)c1ccc2oc(=O)[nH]c2c1" ?
Result :: 51.8

Query :: What do you get for CC1Sc2ccc(NC(=O)c3ccc(S(=O)(=O)Nc4ccccc4)cc3)cc2NC1=O (stereo not drawn) ?
Result :: 33.5

Query :: What do you get for CC1Sc2ccc(C(=O)Nc3ccc(CN(C)C(C)C)cc3)cc2NC1=O (stereo not drawn) ?
Result :: 105

Query :: What do you get for CC1Sc2ccc(C(=O)Nc3cccc(S(=O)(=O)N(C)C)c3)cc2NC1=O (stereo not drawn) ?
Result :: 1.43

Query :: What do you get for "O=C(Nc1ccc(S(=O)(=O)Nc2ccccc2)cc1)c1ccc2cn[nH]c2c1" ?
Result :: 17.2

Query :: What do you get for CC1Sc2ccc(C(=O)Nc3ccc(CN4CCCCC4)cc3)cc2NC1=O (stereo not drawn) ?
Result :: 108

Query :: What do you get for CC1Sc2ccc(C(=O)Nc3ccc(CN(C)c4ccccc4)cc3)cc2NC1=O (stereo not drawn) ?
Result :: 84.9

Query :: What do you get for Cc1ccccc1NS(=O)(=O)c1cccc(NC(=O)c2ccc3c(c2)NC(=O)C(C)S3)c1 (stereo not drawn) ?
Result :: 6.11

Query :: What do you get for CC1Sc2ccc(C(=O)Nc3cccc(S(=O)(=O)N4CCNCC4)c3)cc2NC1=O (stereo not drawn) ?
Result :: 114

Query :: What do you get for Cc1cc(NC(=O)c2ccc3c(c2)NC(=O)C(C)S3)ccc1S(=O)(=O)Nc1ccccc1 (stereo not drawn) ?
Result :: 1.22

Query :: What do you get for CC1Sc2ccc(C(=O)Nc3ccccc3S(=O)(=O)Nc3ccccc3)cc2NC1=O (stereo not drawn) ?
Result :: 14.2

Query :: What do you get for CC1Sc2ccc(C(=O)Nc3ccc(S(=O)(=O)Nc4ccccc4C(F)(F)F)cc3)cc2NC1=O (stereo not drawn) ?
Result :: 8.61

* * *

The following compounds are listed with their measured viability at 20 µM values.
System: Jeko-1 (SOX11+)
Assay: Cell viability assay (CellTiter-Blue resazurin reduction)
Assay type: cell-based
Details: Homo sapiens, JeKo-1, 72 h, JeKo-1 cells, 20 μM compound, normalized to 0.2% DMSO
All answers are understood in %, so give the number only.

O=C(Nc1cccc(S(=O)(=O)N2CCCCC2)c1)c1ccc2c(c1)CCCS2 :: 54.2
CC1Sc2ccc(C(=O)Nc3cccc(S(=O)(=O)Nc4ccccc4F)c3)cc2NC1=O (centres unmarked) :: 22.7
CC1Sc2ccc(C(=O)Nc3ccc(S(=O)(=O)Nc4ccccc4)cc3C(F)(F)F)cc2NC1=O (centres unmarked) :: 1.38
Cc1ccccc1COc1cccc(NC(=O)c2ccc3c(c2)NC(=O)C(C)S3)c1 (centres unmarked) :: 110

# input for lookup
Query :: // map "CCCN1C(=O)CSc2ccc(C(=O)Nc3ccc(S(=O)(=O)N4CCCCC4)cc3)cc21" to recorded viability at 20 µM (system: Jeko-1 (SOX11+))
Result :: 39.9
